# ASSAY METHOD TEXT: qHTS assay to identify small molecule that activate the aryl hydrocarbon receptor (AhR) signaling pathway - cell viability counter screen (AID 743086);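 further: HepG2 liver cells carrying the AhR DRE luciferase reporter; on the % scale 0 is the no-effect control and ±100 the full control effect; nearly all actives have a fitted effect of over 45% in size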
# CONDITION SUMMARY: HepG2-AhR-luc viability, CellTiter-Fluor, 24 h; series mostly up to 70.3 µM
# From the text: U.S. Tox21 Program National Center for Advancing Translational Sciences [NCATS] NIH Chemical Genomics Center [NCGC] U.S. Environmental Protection Agency [EPA] National Institutes of Environmental Health Sciences [NIEHS] National Toxicology Program [NTP] U.S. Food and Drug Administration [FDA] Tox21 Assay overview: The Aryl hydrocarbon Receptor (AhR), a member of the family of basic helix-loop-helix transcription factors, is crucial to adaptive responses to environmental changes. […]
Inconclusive results are not listed. Activity calls are given as the source filed them. The call rests on the fitted dose curve; in most records, active means well fitted cell-killing curve with a large enough effect in the repeat runs; inconclusive means weak or mixed curves, or effect the other way; inactive means flat fitted curve, though single readings scatter.
One label from this list, please: 1 (active), -1 (inactive)

Kindly provide the recorded test outcome for the following compound: `Cc1ccccn1`
-1

Proceed to `CC(=O)[C@@]1(O)CC[C@H]2[C@@H]3C[C@H](C)C4=CC(=O)CC[C@]4(C)[C@H]3CC[C@@]21C`
-1

Proceed to `CCN1CCC[C@H]1CNC(=O)c1c(OC)ccc(Br)c1OC`
-1

Proceed to `NC[C@H]1O[C@H](O[C@H]2[C@H](O)[C@@H](O[C@H]3O[C@H](CO)[C@@H](O)[C@H](N)[C@H]3O)[C@H](N)C[C@@H]2N)[C@H](O)[C@@H](O)[C@@H]1O`
-1

Proceed to `CN1CCC(OC(c2ccccc2)c2ccccc2)CC1`
-1

----------
# ASSAY METHOD TEXT: qHTS assay to identify small molecule agonists of the estrogen receptor beta (ER-beta) signaling pathway - cell viability counter screen (AID 1259380); further: nearly all actives have a fitted effect of over 30% in size
# CONDITION SUMMARY: ER-beta-bla HEK293T viability, CellTiter-Glo luminescence, 16 h; series mostly up to 92.4 µM
Records with an inconclusive call do not appear. The source made the active and inactive calls. Calls come from the whole dose curve; as a rule, active = well fitted cell-killing curve with a large enough effect in the repeat runs; inconclusive = weak or mixed curves, or effect the other way; inactive = flat fitted curve, though single readings scatter.
One label from this list, please: YES for active, NO for inactive

Use the examples below as a reference point.
>  <COMPOUND>
COCCO

>  <CLASS NAME>
NO

$$$$
>  <COMPOUND>
CN1CCC(=C2c3ccccc3CCc3sccc32)CC1

>  <CLASS NAME>
YES

$$$$
>  <COMPOUND>
CN1CCC(=C2c3ccccc3C=Cc3ccccc32)CC1

>  <CLASS NAME>
YES

$$$$

Kindly provide the recorded test outcome for the following compound: `CCCCCCCCCCCCCCCBr`
NO

Proceed to OCCC1CCCCN1 (stereo not drawn)
NO

Proceed to CC/C(=C\C(=N/O)C(N)=O)C(C)[N+](=O)[O-] (stereo not drawn)
NO

Proceed to `CCCc1ccccc1`
NO

Proceed to `O=CNc1ccccc1`
NO

Proceed to `Cc1cccc(C(C)(C)C)c1O`
NO

Proceed to CCN(CC)C(C)CN1c2ccccc2Sc2ccccc21 (stereo not drawn)
NO

Proceed to `CC(=O)OC/C=C/c1ccccc1`
NO

Proceed to `Cc1cc(CC(=O)O)c(C)n1-c1ccc(Cl)cc1`
YES

Proceed to `CCN(CC)CCOC(=O)C1(c2ccccc2)CCCC1`
NO

----------
# ASSAY METHOD TEXT: qHTS assay to test for compound auto fluorescence at 460 nm (blue) in HepG2 cell free culture (AID 720685); further: on the % scale 0 is the no-effect control and ±100 the full control effect
# CONDITION SUMMARY: Cell-free culture medium, blue autofluorescence 405/460 nm; series mostly up to 91.3 µM
The source made the active and inactive calls. The call rests on the fitted dose curve; in most records, active means well fitted curve in the direction sought with a large enough effect in the repeat runs; inconclusive means weak or mixed curves; inactive means flat fitted curve, though single readings scatter.
READOUT TYPE: fluorescence, % of fluorescent control

Example compounds with recorded fluorescence, % of fluorescent control:
>  <COMPOUND SMILES>
Nc1cnn([C@@H]2O[C@H](CO)[C@@H](O)[C@H]2O)c(=O)n1

>  <RESULT>
inactive

$$$$
>  <COMPOUND SMILES>
Cc1ccc(O)c([C@H](CCN(C(C)C)C(C)C)c2ccccc2)c1

>  <RESULT>
inactive

$$$$
>  <COMPOUND SMILES>
O=C(NN1CCCC1)NS(=O)(=O)c1ccc(Cl)cc1

>  <RESULT>
inactive

$$$$
>  <COMPOUND SMILES>
CCOc1ccc(NC(=O)CC(C)=O)cc1

>  <RESULT>
inactive

$$$$
>  <COMPOUND SMILES>
C1=Cc2ccccc2C1

>  <RESULT>
inactive

$$$$

For each of the compounds below, state fluorescence, % of fluorescent control.
1. Oc1ccc2c(c1)OCO2
2. CC(C)CC=O

inactive
inactive

----------
# ASSAY METHOD TEXT: qHTS assay to identify small molecule agonists of the constitutive androstane receptor (CAR) signaling pathway - cell viability counter screen (AID 1224836); further: on the % scale 0 is the no-effect control and ±100 the full control effect; nearly all actives have a fitted effect of over 45% in size
# CONDITION SUMMARY: HepG2-CYP2B6-hCAR viability, CellTiter-Fluor, 23 h, PK11195 added to every well; series mostly up to 92.4 µM
Records with an inconclusive call do not appear. Active and inactive are the calls of the source. Calls follow the shape of the dose curve; as a rule, active = well fitted cell-killing curve with a large enough effect in the repeat runs; inconclusive = weak or mixed curves, or effect the other way; inactive = flat fitted curve, though single readings scatter.
READOUT TYPE: viability change, negative = cytotoxic

Example compounds with recorded viability change, negative = cytotoxic:
>  <COMPOUND>
Cc1nc2ccccc2n1Cc1ccc(Cl)cc1

>  <READOUT TYPE>
viability change, negative = cytotoxic

>  <RESULT>
inactive

$$$$
>  <COMPOUND>
CCN1CCC[C@H]1CNC(=O)c1c(OC)ccc(Br)c1OC

>  <READOUT TYPE>
viability change, negative = cytotoxic

>  <RESULT>
inactive

$$$$
>  <COMPOUND>
CC1=CCC(C(C)C)C=C1 (configuration not stated)

>  <READOUT TYPE>
viability change, negative = cytotoxic

>  <RESULT>
inactive

$$$$
>  <COMPOUND>
C=C(C)C(=O)OC(C)C

>  <READOUT TYPE>
viability change, negative = cytotoxic

>  <RESULT>
inactive

$$$$

For each of the compounds below, state viability change, negative = cytotoxic.
1. CCN(CC)CCOC(=O)C1(c2ccccc2)CCCC1
2. C=CC(=O)OCCOC(=O)CCC(=O)O
3. O=C(c1ccc(O)cc1)c1ccc(O)cc1

1: inactive; 2: inactive; 3: inactive

----------
# ASSAY METHOD TEXT: qHTS assay to identify small molecule antagonists of the thyroid receptor (TR) signaling pathway (AID 743065); further: nearly all actives have a fitted effect of over 55% in size
# CONDITION SUMMARY: GH3.TRE-Luc, T3-stimulated luciferase inhibition, 23.5 h; series mostly up to 70.3 µM
Inconclusive results are not listed. Active and inactive are the calls of the source. Calls come from the whole dose curve; as a rule, active = well fitted inhibition curve with a large enough effect in the repeat runs; inconclusive = weak or mixed curves; inactive = no such curve, though single readings can be large or run the other way.
One label from this list, please: Yes for active, No for inactive

Use the examples below as a reference point.
>  <COMPOUND>
CCCCOc1ccc(CC(=O)NO)cc1

>  <CLASS NAME>
No

$$$$
>  <COMPOUND>
CCCCOCCOCCOCCOCCO

>  <CLASS NAME>
No

$$$$
>  <COMPOUND>
N#CCc1cccc(C(F)(F)F)c1

>  <CLASS NAME>
No

$$$$
>  <COMPOUND>
COC(Cc1ccccc1)OC

>  <CLASS NAME>
No

$$$$
>  <COMPOUND>
N[C@H]1C(O)O[C@H](CO)[C@H](O)[C@@H]1O (stereo not given in full)

>  <CLASS NAME>
No

$$$$
>  <COMPOUND>
Cn1sccc1=O

>  <CLASS NAME>
Yes

$$$$
>  <COMPOUND>
Cc1ccc(C(N)=O)cc1N

>  <CLASS NAME>
No

$$$$
>  <COMPOUND>
CCOC(=O)CC(=O)c1cc(F)c(Cl)nc1Cl

>  <CLASS NAME>
No

$$$$
>  <COMPOUND>
CCCCCCCCCO

>  <CLASS NAME>
No

$$$$
>  <COMPOUND>
CCOC(=O)C1=NN(c2ccccc2)C(=O)C1

>  <CLASS NAME>
No

$$$$

Kindly provide the recorded test outcome for the following compound: CC(C(=O)O)c1ccc(-c2ccccc2)c(F)c1 (stereo not given)
No

Proceed to CCCCOC(=O)c1ccccc1C(=O)OCC(CC)CCCC (stereo not given)
No

Proceed to `O=C(O)COC(=O)Cc1ccccc1Nc1c(Cl)cccc1Cl`
No

Proceed to `C=CC(=O)OCCOC(=O)CCC(=O)O`
No

Proceed to `O=c1c2ccccc2nnn1CCl`
No

Proceed to `CN1CCN(C2=Nc3cc(Cl)ccc3Nc3ccccc32)CC1`
Yes

Proceed to `CC(C)CC=O`
No

Proceed to CCCCCCCCCCCCCCC1CO1 (stereo not given)
No

Proceed to C=CC(=O)OCC(C)OCC(C)OCC(C)OC(=O)C=C (stereo not given)
Yes

Proceed to CCN(CCO)CCCC(C)Nc1ccnc2cc(Cl)ccc12 (stereo not given)
No

Proceed to CC(C)(C)C1CCCCC1O (stereo not given)
No

Proceed to `N=C(N=C(N)N)N1CCOCC1`
No

Proceed to `CN(C)CCCOc1nn(Cc2ccccc2)c2ccccc12`
Yes

Proceed to `NCc1ccccc1`
No

Proceed to `CCCCCCCCN(C)C`
No

Proceed to CCCCOC(O)CC (stereo not given)
No

Proceed to `CC(=O)[C@@]1(O)CC[C@H]2[C@@H]3C[C@H](C)C4=CC(=O)CC[C@]4(C)[C@H]3CC[C@@]21C`
Yes

Proceed to `Oc1ccc(Sc2ccc(O)cc2)cc1`
Yes

Proceed to `O=C(Cl)c1ccc([N+](=O)[O-])cc1`
No

Proceed to CC1CCc2cc(F)cc3c(=O)c(C(=O)O)cn1c23 (stereo not given)
No

Proceed to `CC(C)(C)c1ccc(S)cc1`
No
